System: codling moth neonates
experiment.notes: apple plug choice feeding bioassay with codling moth neonates
Type: in vivo, Cydia pomonella
Design: key: (1 − treated feeders / control feeders) × 100
test.context: 5 mg/ml
Method: Codling moth pupae were obtained from USDA-ARS Yakima Agricultural Research Laboratory in Wapato, Wash., USA. These pupae were stored at 25° C., 70-80% relative humidity and 16:8 (L:D). Moths were allowed to oviposit on polypropylene Ziploc bags (S. C. Johnson, Racine, Wis., USA). Neonates were collected 0.5-1.0 h post-hatch and subjected to bioassays immediately. […] Assays were evaluated after 20 hours to determine which plug was fed upon. […]
measured.parameter: Deterrence index

smiles=CCCCCCCCCCCCCc1cccc(O)c1C(=O)O measured_parameter="Deterrence index" endpoint_result=0

Value lookup for Deterrence index; key = `CCCCCC/C=C\CCCCCCCc1cccc(O)c1C(=O)O` 50.0

Value lookup for Deterrence index; key = `CCCCCC/C=C\CCCCCCCCCc1cccc(O)c1C(=O)O` 54.5

Value lookup for Deterrence index; key = `CCCCCCCCCCCCCCCc1cccc(O)c1C(=O)O` 81.8

* * *

Tested on: codling moth neonates
experiment.notes: apple plug choice feeding bioassay with codling moth neonates
Format: in vivo, Cydia pomonella
test.context: 10 mg/ml
Quick list: Number of neonates feeding Treated fruit per entry.
The answer should be a number; do not append a unit.

smiles=CCCCCC/C=C\CCCCCCCc1cccc(O)c1C(=O)O endpoint_result=7

The record that follows has no Number of neonates feeding Treated fruit shown yet.
Value lookup for Number of neonates feeding Treated fruit; key = `CCCCCCCCCCCCCc1cccc(O)c1C(=O)O` 11

* * *

System: codling moth neonates
experiment.notes: apple plug choice feeding bioassay with codling moth neonates
Format: in vivo, Cydia pomonella
test.context: 0.5 mg/ml
measured.parameter: Number of neonates feeding Treated fruit
The answer should be a number; do not append a unit.

Consider the worked cases shown below.
smiles=CCCCCCCCCCCCCCCc1cccc(O)c1C(=O)O system_name="codling moth neonates" endpoint_result=11
smiles=CCCCCC/C=C\CCCCCCCc1cccc(O)c1C(=O)O system_name="codling moth neonates" endpoint_result=13
smiles=CCCCCC/C=C\CCCCCCCCCc1cccc(O)c1C(=O)O system_name="codling moth neonates" endpoint_result=10

The record that follows has no Number of neonates feeding Treated fruit shown yet.
Value lookup for Number of neonates feeding Treated fruit; key = `CCCCCCCCCCCCCc1cccc(O)c1C(=O)O` 13

* * *

Quick list: Number of neonates feeding Treated fruit per entry.
Tested on: codling moth neonates
experiment.notes: apple plug choice feeding bioassay with codling moth neonates
Type: in vivo, Cydia pomonella
test.context: 10 mg/ml
The answer should be a number; do not append a unit.

compound="C[C@@H]1C(=O)O[C@H]2C[C@@]34[C@H]5C[C@@H](C(C)(C)C)[C@]36[C@@H](OC(=O)[C@@H]6O)O[C@@]4(C(=O)O5)[C@]21O [Ginkgolide A]" endpoint_result=16

Value lookup for Number of neonates feeding Treated fruit; key = O=c1c(O)c(-c2ccc(O)cc2)oc2cc(O)cc(O)c12 [Kaempferol] 10

Value lookup for Number of neonates feeding Treated fruit; key = O=c1c(O)c(-c2ccc(O)c(O)c2)oc2cc(O)cc(O)c12 [Quercetin] 20

Value lookup for Number of neonates feeding Treated fruit; key = CCCCCC/C=C\CCCCCCCCCc1cccc(O)c1C(=O)O [Ginkgolic acid 17:1] 8

* * *

Quick list: Number of neonates feeding Treated fruit per entry.
Tested on: codling moth neonates
experiment.notes: apple plug choice feeding bioassay with codling moth neonates
Assay type: in vivo, Cydia pomonella
test.context: 0.1 mg/ml
The answer should be a number; do not append a unit.

Consider the worked cases shown below.
compound="O=c1c(O)c(-c2ccc(O)cc2)oc2cc(O)cc(O)c12 [Kaempferol]" measured_parameter="Number of neonates feeding Treated fruit" endpoint_result=12
compound="CC1C(=O)OC2C(O)C34C5CC(C(C)(C)C)C36C(OC(=O)C6O)OC4(C(=O)O5)C12O (stereo not drawn) [Ginkgolide B]" measured_parameter="Number of neonates feeding Treated fruit" endpoint_result=14
compound="C[C@@H]1C(=O)O[C@H]2C[C@@]34[C@H]5C[C@@H](C(C)(C)C)[C@]36[C@@H](OC(=O)[C@@H]6O)O[C@@]4(C(=O)O5)[C@]21O [Ginkgolide A]" measured_parameter="Number of neonates feeding Treated fruit" endpoint_result=12
compound="O=c1c(O)c(-c2ccc(O)c(O)c2)oc2cc(O)cc(O)c12 [Quercetin]" measured_parameter="Number of neonates feeding Treated fruit" endpoint_result=14

The record that follows has no Number of neonates feeding Treated fruit shown yet.
Value lookup for Number of neonates feeding Treated fruit; key = COc1cc(-c2oc3cc(O)cc(O)c3c(=O)c2O)ccc1O [Isorhamnetin] 26

* * *

System: codling moth neonates
experiment.notes: apple plug choice feeding bioassay with codling moth neonates
Assay type: in vivo, Cydia pomonella
Parameters: key: (1 − treated feeders / control feeders) × 100
test.context: 0.1 mg/ml
measured.parameter: Deterrence index

Consider the worked cases shown below.
compound="C[C@@H]1C(=O)O[C@H]2C[C@@]34[C@H]5C[C@@H](C(C)(C)C)[C@]36[C@@H](OC(=O)[C@@H]6O)O[C@@]4(C(=O)O5)[C@]21O [Ginkgolide A]" measured_parameter="Deterrence index" endpoint_result=7.69
compound="COc1cc(-c2oc3cc(O)cc(O)c3c(=O)c2O)ccc1O [Isorhamnetin]" measured_parameter="Deterrence index" endpoint_result=10.3
compound="CC(C)(C)[C@]1(O)CC2OC(=O)CC23C(=O)OC2OC(=O)[C@H](O)C231 (stereo partly drawn) [Bilobalide]" measured_parameter="Deterrence index" endpoint_result=56.5
compound="CC1C(=O)OC2C(O)C34C5CC(C(C)(C)C)C36C(OC(=O)C6O)OC4(C(=O)O5)C12O (stereo not drawn) [Ginkgolide B]" measured_parameter="Deterrence index" endpoint_result=12.5
compound="O=c1c(O)c(-c2ccc(O)c(O)c2)oc2cc(O)cc(O)c12 [Quercetin]" measured_parameter="Deterrence index" endpoint_result="No deterrence"

The record that follows has no Deterrence index shown yet.
Value lookup for Deterrence index; key = O=c1c(O)c(-c2ccc(O)cc2)oc2cc(O)cc(O)c12 [Kaempferol] No deterrence

* * *

Test system: codling moth neonates
experiment.notes: apple plug choice feeding bioassay with codling moth neonates
Format: in vivo, Cydia pomonella
test.context: choice test versus fruit treated at 0.1 mg/ml
Response key: rule met means Number of neonates feeding Control fruit >= 30; rule not met means Number of neonates feeding Control fruit < 30.

Worked examples, 3 compounds total:
compound="CC1C(=O)OC2C(O)C34C5CC(C(C)(C)C)C36C(OC(=O)C6O)OC4(C(=O)O5)C12O (stereo not drawn) [Ginkgolide B]" category_label="rule not met"
compound="C[C@@H]1C(=O)O[C@H]2C[C@@]34[C@H]5C[C@@H](C(C)(C)C)[C@]36[C@@H](OC(=O)[C@@H]6O)O[C@@]4(C(=O)O5)[C@]21O [Ginkgolide A]" category_label="rule not met"
compound=O=c1c(O)c(-c2ccc(O)cc2)oc2cc(O)cc(O)c12 category_label="rule not met"

Check if Number of neonates feeding Control fruit >= 30 (inclusive). Item: CC(C)(C)[C@]1(O)CC2OC(=O)CC23C(=O)OC2OC(=O)[C@H](O)C231 (stereo partly drawn) [Bilobalide] rule met

Check if Number of neonates feeding Control fruit >= 30 (inclusive). Item: `O=c1c(O)c(-c2ccc(O)c(O)c2)oc2cc(O)cc(O)c12` rule not met

Check if Number of neonates feeding Control fruit >= 30 (inclusive). Item: `COc1cc(-c2oc3cc(O)cc(O)c3c(=O)c2O)ccc1O` rule not met
